Measured shrunken log2 fold change by item
Tested on: Escherichia coli TOP10;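 note: peptides expressed intracellularly from a pBAD plasmid library in pooled LB shake-flask culture, induced with 0.3% L-arabinose, DNA abundance read by NGS, three biological replicates, DESeq2 with apeglm shrinkage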
assay_info: shrunken log2 fold change of peptide-encoding DNA abundance (4.5 h post-induction vs induction); higher = less antimicrobial activity (less host growth inhibition)
measurement_conditions: time post-induction: 4.5 h; library: site-saturation at positions 5, 18, 19, 20
// return a plain number; no unit text

Use the examples below as a reference point.
>>> df
           sequence_string            assay_target               readout_kind  quantitative_result
0  RRIRVRPPRLPRPRPRPMYNPRP  Escherichia coli TOP10  shrunken log2 fold change               -0.315
1  RRIRHRPPRLPRPRPRPKHQPRP  Escherichia coli TOP10  shrunken log2 fold change               -0.195
2  RRIRRRPPRLPRPRPRPNPWPRP  Escherichia coli TOP10  shrunken log2 fold change                0.231
3  RRIRDRPPRLPRPRPRPYRAPRP  Escherichia coli TOP10  shrunken log2 fold change               -0.118
4  RRIRARPPRLPRPRPRPNDNPRP  Escherichia coli TOP10  shrunken log2 fold change               -0.344

Input `RRIRWRPPRLPRPRPRPSHMPRP` , output reported shrunken log2 fold change.
-0.668

Input `RRIRPRPPRLPRPRPRPFIWPRP` , output reported shrunken log2 fold change.
-0.271

Input `RRIRFRPPRLPRPRPRPLDFPRP` , output reported shrunken log2 fold change.
-0.325

Input `RRIRIRPPRLPRPRPRPCYKPRP` , output reported shrunken log2 fold change.
-0.049

Origin of measurements: the supplement of paper PMC9112550
